Assay details: EF1alpha-driven Renilla reporter with control 3'UTR suppression – Clone20-Shn3RL cells, dual-Glo, cherry-pick, set 2, counter-screen for Shn3 3'UTR targeting project, dose response (AID 720724)
Measurement setup: renilla luciferase luminescence, 24 h; series mostly up to 35 µM
Measured potencies and affinities stand elsewhere. Activity calls are given as the source filed them.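 Rule for the calls: active = signal falls with a fitted half-maximal dose at most twice the top dose, in every run; inconclusive = steady partial drop, poor fit, or runs disagree; inactive = flat, rising or too weak in every run.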

{"Molecule": "O=C(Nc1ccc(Cl)cc1)c1cc(S(=O)(=O)N2CCOCC2)cs1", "outcome": "inactive"}
{"Molecule": "Cc1cccc(CSc2cccc3cccnc23)c1", "outcome": "inactive"}
{"Molecule": "Oc1ccc(-c2n[nH]c(C(F)(F)F)c2-c2ccccc2)c(O)c1", "outcome": "inactive"}
{"Molecule": "CCCCN1CC(COCc2ccccc2)Oc2cccc(Oc3ccc(C(C)C)cc3)c2S1(=O)=O (stereo unspecified)", "outcome": "inactive"}
{"Molecule": "COc1cccc(-n2c(C)nc3c(cnn3-c3ccc(Cl)cc3)c2=O)c1", "outcome": "inactive"}
{"Molecule": "CC(C)(C)C(=O)Nc1cc2nn(-c3ccccc3)nc2cc1Cl", "outcome": "inactive"}
{"Molecule": "Cc1cc(S(=O)(=O)NCc2ccncc2)c(C)cc1Br", "outcome": "inactive"}
{"Molecule": "COc1ccc(C(=O)Nc2nc3ccccc3s2)c(OC)c1", "outcome": "inactive"}
{"Molecule": "COc1cc(NC(=O)c2cccc3c(-c4cccnc4)coc23)cc(OC)c1OC", "outcome": "inactive"}
{"Molecule": "CCCCOCCCNc1ncnc2c1[nH]c1ccccc12", "outcome": "inactive"}
{"Molecule": "COc1ccccc1NS(=O)(=O)c1cc(NC(=O)c2ccc(Cl)nc2)ccc1Cl", "outcome": "inactive"}
